Reference source for all entries: ChEMBL document CHEMBL4483862

Test system: Plasmodium berghei
Assay: Luciferase/luciferin-expressing antifolate-resistant parasites were used to infect a culture of HepG2 cells that were pre-incubated with compounds. Infected hepatocytes emit light due to the luciferase reaction. Assay results are presented as the percent inhibition of light emission compared to control. […]
Type: functional
Settings: sporozoite, read-out: LUCIFERASE INFECTION ASSAY - IC90
Answer each item with its documented IC90.

[
  {
    "Compound": "Clc1ccccc1CNc1ncnc2ccsc12",
    "Result": "> 10 µM"
  },
  {
    "Compound": "CC(NCC(=O)N1c2ccc(S(N)(=O)=O)cc2CC1C)C1CC2CCC1C2 (stereo unspecified)",
    "Result": "7.51 µM"
  },
  {
    "Compound": "c1ccc(CN2CCC(Nc3ncnc4sccc34)CC2)cc1",
    "Result": "> 10 µM"
  },
  {
    "Compound": "COc1ccc(CNc2nc(C)nc3scc(-c4ccccc4)c23)cc1",
    "Result": "6.87 µM"
  },
  {
    "Compound": "NC1=C(c2ccccc2)C(=O)c2ccccc21",
    "Result": "> 14.9 µM"
  }
]

Now for a further compound.
Look up IC90 for this compound: `COC(=O)c1cc(NC(=O)C(C)(C)Oc2ccc(Cl)cc2)ccc1F` > 10 µM

----------
Test system: Plasmodium berghei
Assay: Luciferase/luciferin-expressing antifolate-resistant parasites were used to infect a culture of HepG2 cells that were pre-incubated with compounds. Infected hepatocytes emit light due to the luciferase reaction. Assay results are presented as the percent inhibition of light emission compared to control. […]
Assay type: functional
Conditions: sporozoite, HEPG2TOX_HILL_SLOPE 2.45, HEPG2TOX_R_SQUARED 0.958, PBLUC_HILL_SLOPE 3.17, PBLUC_R_SQUARED 0.64, read-out: LUCIFERASE INFECTION ASSAY - IC50
Experimental endpoint: pIC50
Give bare numbers, as −log10 of the molar value.

What value of pIC50 on Plasmodium berghei does `COc1cc(-c2ccc3ncc(-c4cccs4)n3n2)cc(OC)c1OC` have? 5.69

----------
Test system: Plasmodium berghei
Test: Luciferase/luciferin-expressing antifolate-resistant parasites were used to infect a culture of HepG2 cells that were pre-incubated with compounds. Infected hepatocytes emit light due to the luciferase reaction. Assay results are presented as the percent inhibition of light emission compared to control. […]
Type: functional
Details: sporozoite, FFLUC_HILL_SLOPE 16.7, FFLUC_R_SQUARED 0.318, HEPG2TOX_HILL_SLOPE 9.14, HEPG2TOX_R_SQUARED 0.751, PBLUC_HILL_SLOPE 4.24, PBLUC_R_SQUARED 0.127, read-out: LUCIFERASE INFECTION ASSAY - IC50
Experimental endpoint: IC50 (µM)
Give bare numbers, in µM.

// IC50 lookup, key: `Cc1ccccc1OC1=C(Cl)C(=O)c2ccccc2C1=O` 5.87

----------
Test system: Plasmodium berghei
Experiment: Luciferase/luciferin-expressing antifolate-resistant parasites were used to infect a culture of HepG2 cells that were pre-incubated with compounds. Infected hepatocytes emit light due to the luciferase reaction. Assay results are presented as the percent inhibition of light emission compared to control. […]
Type: functional
Conditions: sporozoite, PBLUC_HILL_SLOPE 7.62, PBLUC_R_SQUARED 0.0613, read-out: LUCIFERASE INFECTION ASSAY - IC50
pIC50: −log10 of the molar value.
Experimental endpoint: pIC50

Which value of pIC50 has been reported for `CN(C)C(=O)Oc1ccc2c(-c3ccccc3)cc(=O)oc2c1` in the records? < 4.97
